Listed here: items and their measured Ratio OD(Variant)/OD(WT).
target: HRgpA-6H (Porphyromonas gingivalis) (UniProt P28784); test: ELISA on coated HRgpA-6H
READOUT TYPE: Ratio OD(Variant)/OD(WT)

1. KB001 mouse Fab FASEBA VH S30M (Fab, V domains shown) VH: EVQLKQSGPGLVAPSQSLSITCTVSGFSLMIYSVHWVRQPPGKGLEWLGMIWGGGSSDYNSALKSRLSISKDNSKSQVFLKMNSLQTDDTAMYYCARNGNFYAMDYWGQGTSVTVSS VL: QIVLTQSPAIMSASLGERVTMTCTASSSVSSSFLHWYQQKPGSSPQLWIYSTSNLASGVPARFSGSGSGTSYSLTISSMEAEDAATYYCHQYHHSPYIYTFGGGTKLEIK : 0.866
2. KB001 mouse Fab FASEBA VH Y106Q (Fab, V domains shown) VH: EVQLKQSGPGLVAPSQSLSITCTVSGFSLSIYSVHWVRQPPGKGLEWLGMIWGGGSSDYNSALKSRLSISKDNSKSQVFLKMNSLQTDDTAMYYCARNGNFYAMDQWGQGTSVTVSS VL: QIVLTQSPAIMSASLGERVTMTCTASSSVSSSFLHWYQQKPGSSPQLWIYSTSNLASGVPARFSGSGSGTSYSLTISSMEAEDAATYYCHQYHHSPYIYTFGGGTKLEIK : 1.03
3. KB001 mouse Fab FASEBA VH N100E (Fab, V domains shown) VH: EVQLKQSGPGLVAPSQSLSITCTVSGFSLSIYSVHWVRQPPGKGLEWLGMIWGGGSSDYNSALKSRLSISKDNSKSQVFLKMNSLQTDDTAMYYCARNGEFYAMDYWGQGTSVTVSS VL: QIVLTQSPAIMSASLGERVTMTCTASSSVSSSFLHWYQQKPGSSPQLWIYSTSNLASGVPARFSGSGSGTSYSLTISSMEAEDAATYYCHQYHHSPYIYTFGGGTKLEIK : 1.05
4. KB001 mouse Fab FASEBA VH S30W (Fab, V domains shown) VH: EVQLKQSGPGLVAPSQSLSITCTVSGFSLWIYSVHWVRQPPGKGLEWLGMIWGGGSSDYNSALKSRLSISKDNSKSQVFLKMNSLQTDDTAMYYCARNGNFYAMDYWGQGTSVTVSS VL: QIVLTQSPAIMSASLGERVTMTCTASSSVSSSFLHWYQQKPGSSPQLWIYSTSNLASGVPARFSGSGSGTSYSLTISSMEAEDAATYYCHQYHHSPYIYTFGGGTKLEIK : 0.93
